Protein target, amino acids: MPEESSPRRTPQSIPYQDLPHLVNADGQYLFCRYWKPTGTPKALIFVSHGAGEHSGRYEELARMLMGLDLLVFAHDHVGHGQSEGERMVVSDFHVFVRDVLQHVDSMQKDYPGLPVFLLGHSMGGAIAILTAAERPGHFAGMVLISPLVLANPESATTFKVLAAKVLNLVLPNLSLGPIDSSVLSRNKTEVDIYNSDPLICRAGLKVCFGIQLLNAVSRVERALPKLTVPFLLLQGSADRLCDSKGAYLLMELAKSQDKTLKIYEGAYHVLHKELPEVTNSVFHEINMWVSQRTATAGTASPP
measure_name: IC50 (nM)

1. O=C1N[C@H](CCC(=O)N2CC(c3cccc(C4(C(F)(F)F)CC4)c3)C2)CO1 [Example 109]
2. O=C1N[C@H](CCC(=O)N2CC(c3ccc(N(c4ccccc4)c4ccccc4)cc3)C2)CO1 [Example 90]
3. CC(C)(C)Cn1nncc1-c1ccc(C2CN(C(=O)CC[C@@H]3COC(=O)N3)C2)cc1 [Example 81]
# input Rank descending by IC50. Labels, requested order.
# output 1, 3, 2

1. CS(=O)(=O)c1cc(F)ccc1OC1CCC2(CC1)CN(C(=O)CC[C@@H]1COC(=O)N1)C2 [Example 137]
2. O=C1N[C@H](CCC(=O)N2CC3(CCN(Cc4cccc(S(=O)(=O)C(F)(F)F)c4)CC3)C2)CO1 [Example 195]
# input Which of the two items, 1 and 2 , has the greater recorded IC50? When you have decided, please share the label of that item.
# output 1

P. O=C1N[C@H](CCC(=O)N2CC(c3cnc(N4CCC(C(F)(F)F)C4)cn3)C2)CO1 (stereo partly shown) [Example 105]
Q. O=C1N[C@H](CCC(=O)N2CC3(CC(NS(=O)(=O)c4cccc(C(F)(F)F)c4)C3)C2)CO1 [Example 154]
# input // select label with min value of measured IC50 from [ P , Q ] Your answer should be the label of the entry you select.
# output P

----------
Each entry below carries its measured IC50, system: MAGL (Homo sapiens, UniProt Q99685).
measure_name: IC50 (nM)

{"columns": ["molecule", "test_system", "IC50 (nM)"],
 "data": [
  ["CC(C)(Oc1ccc(C2CN(C(=O)CCCc3cnn[nH]3)C2)cc1)C(F)(F)F", "MAGL (Homo sapiens, UniProt Q99685)", 23],
  ["O=C1N[C@H](CCC(=O)N2CC3(C2)CN(S(=O)(=O)c2ccc(C(F)(F)F)cc2)C3)CO1", "MAGL (Homo sapiens, UniProt Q99685)", 2270],
  ["O=C1N[C@H](CCC(=O)N2CC(c3ccc(-c4nc(C5(C(F)(F)F)CC5)n[nH]4)cc3)C2)CO1", "MAGL (Homo sapiens, UniProt Q99685)", 181]
]}

P. O=C1N[C@H](CCC(=O)N2CC(c3ccc(N4CC5(C4)CC(F)(F)C5)cc3)C2)CO1
Q. O=C1N[C@H](CCC(=O)N2CC(c3ccc(Oc4cnc(C(F)(F)F)cn4)cc3)C2)CO1
# input Which record would sort first by descending IC50, P or Q ? Please reply using the label of the selected record.
# output Q
(Q: 20 nM, P: 9 nM)

a. O=C1N[C@H](CCC(=O)N2CC(c3ccc([C@H]4CC[C@@H](C(F)(F)F)CC4)nc3)C2)CO1 (single isomer, unassigned)
b. O=C1NC(CCC(=O)N2CC(c3cnc(N4CCC(C(F)(F)F)C4)nc3)C2)CO1 (single isomer, unassigned)
# input I'm curious, which of these has a smaller IC50 number: a or b ? Select an item and report its label.
# output a
(a: 1 nM, b: 131 nM)

----------
- test_system: MAGL (Homo sapiens, UniProt Q99685)
- assay_protocol: 2-AG assay (MAGL inhibitory activity, hydrolysis of 2-arachidonoylglycerol followed by mass spectrometry)
- Assay type: biochemical
- condition_details: 50 pM MAGL, 8 μM 2-arachidonoylglycerol, 15 min preincubation, 30 min incubation at RT, concentration range 12.5 μM to 0.8 pM
pIC50: −log10 of the molar value.
measure_name: pIC50

Recorded results for 5 compounds are shown here.
{"columns": ["compound", "pIC50"],
 "data": [
  ["O=C1N[C@H](CCC(=O)N2CC(c3ccc(N4CC(C(F)(F)F)C4)c(F)c3)C2)CO1", 7.80],
  ["O=C1CCC(CCC(=O)N2CC(c3ccc(C4(C(F)(F)F)CC4)cc3)C2)N1 (single isomer, unassigned; (+)) [Example 6]", 8.52],
  ["O=C1N[C@H](COC(=O)N2CC(OCc3ccc(C(F)(F)F)cc3F)C2)CO1", 7.44],
  ["CN(CCc1cnn[nH]1)C(=O)N1CC(c2ccc(-c3ccc(S(C)(=O)=O)cc3Cl)cc2)C1", 7.57],
  ["O=C1N[C@H](CCC(=O)N2CC(c3ccc(C4CC5(CCC5)C4)nc3)C2)CO1", 8.05]
]}

a. O=C1N[C@H](CCC(=O)N2CC3(CCC(Cc4cnc(C(F)(F)F)cn4)CC3)C2)CO1
b. O=C1N[C@H](CCC(=O)N2CC(c3ccc(S(=O)(=O)C4CCCCC4)cc3)C2)CO1
# input Param pair: a , b . Output: the one whose pIC50 is numerically greater. // return label of chosen record
# output b
(b: 7.46, a: 6.85)

----------
Target protein (sequence): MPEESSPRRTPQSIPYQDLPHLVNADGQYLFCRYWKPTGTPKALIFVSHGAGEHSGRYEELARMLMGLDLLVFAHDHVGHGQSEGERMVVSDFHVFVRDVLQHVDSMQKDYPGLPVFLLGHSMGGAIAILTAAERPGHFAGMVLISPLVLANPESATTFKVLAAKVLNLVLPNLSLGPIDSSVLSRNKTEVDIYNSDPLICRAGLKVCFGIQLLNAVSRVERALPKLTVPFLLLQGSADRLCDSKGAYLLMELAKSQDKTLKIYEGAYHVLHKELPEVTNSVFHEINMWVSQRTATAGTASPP
measure_name: IC50 (nM)

Some entries whose results are on file:
{"columns": ["compound", "val"],
 "data": [
  ["O=C1N[C@@H](CCC(=O)N2CC(OCc3ccc(C(F)(F)F)cc3F)C2)CO1", 1550],
  ["CS(=O)(=O)c1cc(Cl)ccc1-c1ccc(C2CN(C(=O)CCC3CNC(=O)N3)C2)cc1 (stereo not drawn) [Example 216]", 68],
  ["CS(=O)(=O)c1ccc(-c2ccc(C3CN(C(=O)CC[C@@H]4COC(=O)N4)C3)nc2)c(Cl)c1", 7],
  ["O=C1N[C@H](CCC(=O)N2CC(c3cnc(N4CC5(CCCC5)C4)cn3)C2)CO1", 28],
  ["O=C1N[C@H](CCC(=O)N2CC3(CCC(Oc4ccc(C(F)(F)F)nn4)CC3)C2)CO1", 22]
]}

P. O=C1N[C@H](CCC(=O)N2CC(c3ccc(N4CC(O)(C(F)(F)F)C4)nc3)C2)CO1
Q. O=C1N[C@H](CCC(=O)N2CC(c3ccc(N4CC(C(F)(F)F)C4)cc3)C2)CO1
R. O=C1N[C@H](CCC(=O)N2CC(OCc3ccc(S(=O)(=O)C(F)(F)F)cc3)C2)CO1
S. O=C1CCC(CCC(=O)N2CC(c3ccc(CC(F)(F)F)cc3)C2)N1 (single isomer, unassigned) [Example 8]
# input Rank descending by IC50. Hello, could you send the labels back in the order asked? Thank you.
# output P, R, S, Q
(P: 172 nM, R: 48 nM, S: 26 nM, Q: 7 nM)

A. O=C1N[C@H](CCC(=O)N2CC3(C2)CN(S(=O)(=O)c2ccccc2OC(F)(F)F)C3)CO1
B. O=C1N[C@H](CCC(=O)N2CC(c3cnc(NCC4(C(F)(F)F)CC4)cn3)C2)CO1
# input Compare reported IC50 values for A and B . Which is lower? When you have decided, please share the label of that item.
# output B

A. NS(=O)(=O)c1ccccc1CN1CC2(C1)CN(C(=O)CC[C@@H]1COC(=O)N1)C2
B. O=C1CCC(CCC(=O)N2CC(OCc3ccc(C(F)(F)F)cc3F)C2)N1 (single isomer, unassigned; (+))
# input Parameter check: reported IC50 is higher for which label, A or B ? Write down the label of the entry you select.
# output A
(A: 2330 nM, B: 19 nM)

1. NC(=O)c1cc(Cl)ccc1Oc1ccc(C2CN(C(=O)CC[C@@H]3COC(=O)N3)C2)cn1
2. CS(=O)(=O)c1ccc(-c2ccc(C3CN(C(=O)CC[C@@H]4COC(=O)N4)C3)cc2)c(C(F)(F)F)c1
# input Could you kindly indicate whether 1 or 2 has the higher IC50 value? Use the label to indicate which entry you chose.
# output 1

----------
- test_system: MAGL (Homo sapiens)
- assay_protocol: 2-AG assay (MAGL inhibitory activity, hydrolysis of 2-arachidonoylglycerol followed by mass spectrometry)
- Format: biochemical
- condition_details: 50 pM MAGL, 8 μM 2-arachidonoylglycerol, 15 min preincubation, 30 min incubation at RT, concentration range 12.5 μM to 0.8 pM
measure_name: IC50 (nM)

{"columns": ["compound", "IC50 / nM"],
 "data": [
  ["O=C1N[C@H](CCC(=O)N2CC(c3ccc(Oc4nccc(C5CC5)n4)cc3)C2)CO1", 27]
]}

A. CN(CCc1cnn[nH]1)C(=O)N1CC(c2ccc(C3(C(F)(F)F)CC3)cc2)C1
B. CS(=O)(=O)c1cc(Cl)ccc1-c1ccc(C2CN(C(=O)NCC3COC(=O)N3)C2)cc1 (stereo not shown)
C. N#CC1(c2ccc(C3CN(C(=O)CC[C@@H]4COC(=O)N4)C3)cn2)CCC1
# input Descending sort on IC50 required. Your reply should list the labels following the order given in the request.
# output C, B, A
